- Target System: T1, GDF-11 (UniProt O95390 299-407)
- T1 construct: also called Growth and Differentiation Factor-11; BMP11
- T1 sequence (looked up): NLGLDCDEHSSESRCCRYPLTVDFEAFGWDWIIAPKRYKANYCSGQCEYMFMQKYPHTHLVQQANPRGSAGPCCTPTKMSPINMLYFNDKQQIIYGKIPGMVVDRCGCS
- Test Summary: BiaCore (SPR); ligand amine-coupled to CM5 chip, ActRIIB-Fc injected
Observed Property: binding result

Binder	Result
ActRIIB-Fc K74Y (Fc fusion, Mutation in the background ActRIIB-Fc) SGRGEAETRECIYYNANWELERTNQSGLERCEGEQDKRLHCYASWANSSGTIELVYKGCWLDDFNCYDRQECVATEENPQVYFCCCEGNFCNERFTHLPEAGGGTHTCPPCPAPELLGGPSVFLFPPKPKDTLMISRTPEVTCVVVDVSHEDPEVKFNWYVDGVEVHNAKTKPREEQYNSTYRVVSVLTVLHQDWLNGKEYKCKVSNKALPVPIEKTISKAKGQPREPQVYTLPPSREEMTKNQVSLTCLVKGFYPSDIAVEWESNGQPENNYKTTPPVLDSDGSFFLYSKLTVDKSRWQQGNVFSCSVMHEALHNHYTQKSLSLSPGK	binds

Data provenance: patent US20060068468A1
